Test protocol: AUC (0 to infinity) in ICR mouse at 1 mg/kg,iv administration measured upto 24 hrs by LC-MS/MS analysis
Assay type: ADME, organism-based
Run conditions: in vivo
Readout name: AUC(0-inf) (ng·h/mL)
Quick reminder: number only, in ng·h/mL, skip the unit.

Prompt: Indicate the recorded AUC(0-inf) value for this compound: Cn1nnc(-c2ccc(N)c(NC3CCCCC3)c2)n1
Completion: 95.6

---

Test protocol: Cmax in ICR mouse at 1 mg/kg,iv administration measured upto 24 hrs by LC-MS/MS analysis
Assay type: ADME, organism-based
Run conditions: in vivo
Readout name: Cmax (ng/mL)
Quick reminder: number only, in ng/mL, skip the unit.

Prompt: Indicate the recorded Cmax value for this compound: Cn1nnc(-c2ccc(N)c(NC3CCCCC3)c2)n1
Completion: 367

---

Test system: Hippocampus
Test protocol: Anti-ferroptotic activity against glutamate-induced rat Hippocampus assessed as inhibition of ferroptosis
Assay type: functional, tissue-based
Readout name: IC50 (nM)
Quick reminder: number only, in nM, skip the unit.

Prompt: Indicate the recorded IC50 value for this compound: CCOC(=O)c1ccc(NC2CCCCC2)c(N)c1
Completion: 90

---

Tested on: MEF
Test protocol: Anti-ferroptotic activity against tamoxifen induced Gpx4 knockout mouse MEF cells assessed as inhibition of ferroptosis incubated for 72 hrs by AquaBluerTM assay
Type: functional, cell-based
Readout name: IC50 (nM)
Quick reminder: number only, in nM, skip the unit.

Prompt: Fetch value of IC50 on MEF for Clc1cccc(CNC2=Nc3ccccc3NC23CCNCC3)c1 .
Completion: 22

---

Test protocol: Cytotoxicity against human L02 cells incubated for 2 hrs by CCK-8 assay
Assay type: toxicity, cell-based
Readout name: IC50 at 2 h (µM)
Quick reminder: number only, in µM, skip the unit.

Prompt: Indicate the recorded IC50 at 2 h value for this compound: Cn1nnc(-c2cc(N)c(NC3CCCCC3)cc2F)n1
Completion: 12.3

---

Test protocol: Half life in ICR mouse at 1 mg/kg,iv administration measured upto 24 hrs by LC-MS/MS analysis
Assay type: ADME, organism-based
Run conditions: in vivo
Readout name: half-life
Please answer using the number first and the unit second.

Prompt: Indicate the recorded half-life value for this compound: Cn1nnc(-c2ccc(N)c(NC3CCCCC3)c2)n1
Completion: 6 min

---

Test protocol: AUC (0 to t) in ICR mouse at 1 mg/kg,iv administration measured upto 24 hrs by LC-MS/MS analysis
Format: ADME, organism-based
Run conditions: in vivo
Readout name: AUC(0-t) at 24 h (ng·h/mL)
Quick reminder: number only, in ng·h/mL, skip the unit.

Prompt: Indicate the recorded AUC(0-t) at 24 h value for this molecule: Cn1nnc(-c2ccc(N)c(NC3CCCCC3)c2)n1
Completion: 91.5

Every entry's value here was drawn from ChEMBL document CHEMBL5500427.
